These data points were gathered from patent US20260055202A1.

measured target: T1, human CD20 on Raji B lymphoma cells (human, UniProt P11836 1-297)
T1 construct: whole, on cells; also called hCD20
T1 sequence (looked up): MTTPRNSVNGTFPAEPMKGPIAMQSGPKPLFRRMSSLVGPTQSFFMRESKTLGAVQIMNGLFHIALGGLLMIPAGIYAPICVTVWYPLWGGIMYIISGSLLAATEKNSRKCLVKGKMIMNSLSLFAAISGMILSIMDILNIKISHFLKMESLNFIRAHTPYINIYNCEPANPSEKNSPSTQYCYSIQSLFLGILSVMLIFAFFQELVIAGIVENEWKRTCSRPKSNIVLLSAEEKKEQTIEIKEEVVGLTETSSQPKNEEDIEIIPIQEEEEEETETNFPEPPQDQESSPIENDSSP
assay protocol: flow cytometry on Raji cells, direct immunofluorescence with A488-labeled Ab, MFI against concentration, 5PL fit [panel A]
Below, each entry is listed alongside its reported EC50.
Lab note: write values as number then unit, every time.

Observe how each entry below is paired with its result.
Rituximab (antibody, V domains shown) VH: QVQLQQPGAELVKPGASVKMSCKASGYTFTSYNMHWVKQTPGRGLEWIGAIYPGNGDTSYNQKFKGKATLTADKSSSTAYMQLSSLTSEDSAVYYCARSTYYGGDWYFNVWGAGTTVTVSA VL: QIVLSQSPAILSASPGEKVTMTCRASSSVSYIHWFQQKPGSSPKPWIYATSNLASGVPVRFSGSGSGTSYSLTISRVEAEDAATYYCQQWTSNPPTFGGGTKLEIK    5.6 mg/L
ACR7 (chicken-derived anti-hCD20 mAb, chicken-human chimeric) (antibody, human IgG1, V domains shown, Atto 488 NHS-ester label on lysines in the direct immunofluorescence and mCD20 assays (positions not defined), Chicken VH fused to human CH1 and CH2-CH3 of human IgG1; chicken VL fused to human kappa constant domain; made in Expi293F cells; also called chACR7) VH: AVTLDESGGGLQTPGGALSLVCKASGFTFNSNGMGWVRQAPGKGLEWVAGIHSSGRYTYYGTAVKGRATISRDNGQSTVRLQLNDLRAEDTATYYCAKNADSAYGYWYAGSIDAWGHGTEVIVSS VL: ALTQPSSVSANLGGTVEITCSGGYSSYGYSWHQQKSPASAPVTLIYNNNNRPSDIPSRFSGSASGSTATLTITGVQAEDEAVYYCAFTDYSSLAGVFGAGTTLTVL    7.3 mg/L
ACR8 (chicken-derived anti-hCD20 mAb, chicken-human chimeric) (antibody, human IgG1, V domains shown, Atto 488 NHS-ester label on lysines in the direct immunofluorescence and mCD20 assays (positions not defined), Chicken VH fused to human CH1 and CH2-CH3 of human IgG1; chicken VL fused to human kappa constant domain; made in Expi293F cells; also called chACR8) VH: AVTLDESGGGLQTPGGALSLVCKASGFSFDRHGMFWVRQAPGKGLEWVAGIRSTGSYPKYGPAVKGRATISRDNGQSTVRLQLNNLRAEDTARYFCVRNVYIGDYDGDSIDAWGHGTEVIVSS VL: ALTQPSSVSANLGGTVEITCSGSSSGYGSYYGWYQQKSPGSAPVTVIYENTNRPSNIPSRFSGSESGSTATLTITGVQAEDEAVYFCGSADDSGNSAIFGAGTTLTVL    2 mg/L

# ---- query binder ----
Reported EC50 for AC11 (chicken-derived anti-hCD20 mAb, chicken-human chimeric) (antibody, human IgG1, V domains shown, Atto 488 NHS-ester label on lysines in the direct immunofluorescence and mCD20 assays (positions not defined), Chicken VH fused to human CH1 and CH2-CH3 of human IgG1; chicken VL fused to human kappa constant domain; made in Expi293F cells; also called chAC11; parental AC11) VH: AVTLDESGGGLQTPGGALSLVCKASGFDFSSSYINWVRQAPGKGLEYVAQINKDGGGSWYAPVVKGRATISRDNGQSTVRLQLSNLRAEDTGIYFCAKNADSGCVGVGGCIDTWGHGTEVIVSS VL: ALTQPSSVSANPGETVKITCSGGSYYYGGNYYYGWYQQKSPGSAPVTLIYNNNKRPSDIPSRFSGSTSGSTGTLTITGVQADDEAVYYCGGYDSSYVAIFGAGTTLTVL : what is it?
5.7 mg/L
